Documented growth across a set of molecules
- Tested on: KM12 colon
- measurement description: NCI-60 one-dose screen, 48 h (100 = growth as untreated, 0 = no growth, -100 = all killed)
- condition parameters: 10 µM unless noted
About 83,000 compounds went through this panel and 20% of them were active in at least one assay; those are over-represented in the sample as a whole.
measured endpoint: growth (%)

{"columns": ["molecule", "test result"],
 "data": [
  ["O=C1/C(=C/c2ccc(F)cc2)CN(C(=O)CCN2CCC(=NO)CC2)C/C1=C\\c1ccc(F)cc1", -77.2],
  ["O=C1c2c[n+](Cc3ccccc3)ccc2-c2nc3ccccc3c3ccnc1c23", 2.73],
  ["COc1ccc(-c2cnoc2-c2cc(OC)c3c(c2)OCCO3)cc1", 3.62],
  ["Oc1ccccc1N=Cc1c(O)ccc2ccccc12", 59.1],
  ["CCNS(=O)(=O)c1ncnc2nc[nH]c12", 119],
  ["CN1CCCCC1CCN1c2ccccc2Sc2ccc(Cl)cc21 (stereo unspecified)", 60],
  ["Cc1ccc2cnc(N)c(C#Cc3cncc(C(=O)Nc4ccc(CN5CCN(C)CC5)c(C(F)(F)F)c4)c3)c2c1", -82.6],
  ["Cc1nc2nc(N)nc(N)c2nc1C", 102],
  ["Nc1ccc(Nc2nccc(-c3ccc4ccccc4c3)n2)cc1", 27.2],
  ["O=C(CN1CCN(c2cc3c(cc2F)c(=O)c(C(=O)O)cn3C2CC2)CC1)Nc1cc(=O)[nH]c(=O)[nH]1", 108],
  ["CC(=O)O[C@H]1CC[C@]2(C)[C@H]3CC[C@@H]4[C@H]5[C@H](C(C)C)CC[C@]5(C(=O)OCC(CO)(CO)N=C(N)N)CC[C@@]4(C)[C@]3(C)CC[C@H]2C1(C)C", 17.4]
]}

----------
Listing of recorded growth by entry.
- Test system: SK-OV-3 ovarian
- measurement description: NCI-60 one-dose screen, 48 h (100 = growth as untreated, 0 = no growth, -100 = all killed)
- condition parameters: 10 µM unless noted
About 83,000 compounds went through this panel and 20% of them were active in at least one assay; those are over-represented in the sample as a whole. Calls of active or inactive are those of the source. Rule for the calls: active = growth percent below 10; inactive = the rest.

{"columns": ["substance smiles", "growth"],
 "data": [
  ["COc1cccc(-c2cn3c(ccc4ccccc43)n2)c1", "45.7% (inactive)"],
  ["COc1ccccc1-c1ccc2c(N)c(C(=O)c3ccc4c(c3)OCO4)sc2n1", "78.3% (inactive)"],
  ["COc1ccc(CNc2nccnn2)cc1", "109% (inactive)"],
  ["CCOc1ccc(Nc2nc(-c3c(C)nc4ncccn34)cs2)cc1", "3.86% (active)"]
]}

----------
- Tested on: SNB-75 CNS
- measurement description: NCI-60 one-dose screen, 48 h (100 = growth as untreated, 0 = no growth, -100 = all killed)
- condition parameters: 10 µM unless noted
Compounds without any hit were thinned out: in the full panel of roughly 83,000, 20% have a hit.
So basically: is growth under 80%? Then condition met. Not under? Then condition not met.

{"columns": ["molecule", "system under test", "category label"],
 "data": [
  ["N#CC1=C(N)Oc2c(ccc3ccccc23)C1c1cccs1 (stereo unspecified)", "SNB-75 CNS", "condition met"],
  ["CCOC(=O)/C=C/c1ccc(C(=O)OCC)[nH]1", "SNB-75 CNS", "condition met"],
  ["O=C1C=CC(Nc2ccccc2[N+](=O)[O-])C1Nc1ccccc1[N+](=O)[O-] (stereo unspecified)", "SNB-75 CNS", "condition met"],
  ["COc1ccc2nc3cc(Cl)ccc3c(N3CCN(c4nccc(Nc5ccccc5)n4)CC3)c2c1", "SNB-75 CNS", "condition met"],
  ["COC(/C=C/c1ccc([N+](=O)[O-])cc1)OC", "SNB-75 CNS", "condition not met"],
  ["COc1ccc(Cl)cc1Nc1nc(C(F)(F)F)ccc1C(=O)N/N=C/c1cccnc1", "SNB-75 CNS", "condition met"],
  ["COc1ccc2nc3cc(Cl)ccc3c(N3CCN(c4ccnc(N5CCN(C)CC5)n4)CC3)c2c1", "SNB-75 CNS", "condition not met"],
  ["COc1ccc2nc3cc(Cl)ccc3c(N3CCN(c4nccc(NCc5ccccc5)n4)CC3)c2c1", "SNB-75 CNS", "condition met"],
  ["COc1cnc2c(c1)C(=O)c1c-2n(CCCN2CCNCC2)c(=O)c2cc([N+](=O)[O-])ccc12", "SNB-75 CNS", "condition met"],
  ["Cc1noc(C)c1-c1cc(O)cc(C(O)c2ccccc2)c1 (stereo unspecified)", "SNB-75 CNS", "condition met"],
  ["C#Cc1nc2ccccc2c(=O)[nH]1", "SNB-75 CNS", "condition met"],
  ["COc1cccc(-n2cc(-c3nc(Nc4cc(C)[nH]n4)c4ccccc4n3)nn2)c1", "SNB-75 CNS", "condition met"],
  ["CN1CCN(c2ccc3nc(-c4ccc5nc(-c6ccc(OCCC(C)(C)C)cc6)[nH]c5c4)[nH]c3c2)CC1", "SNB-75 CNS", "condition not met"],
  ["COCCCNc1nc(NC(=O)c2ccc(F)cc2C)cc(-c2cccnc2)n1", "SNB-75 CNS", "condition not met"],
  ["CNC(=O)c1cc(Oc2ccc3nc(NC(=O)Nc4ccc(CN5CCOCC5)c(C(F)(F)F)c4)sc3c2)ccn1", "SNB-75 CNS", "condition met"],
  ["O=C1C[C@H](Sc2nc(-c3ccc(F)cc3)cc(C(F)(F)F)n2)[C@H]2CO[C@@H]1O2", "SNB-75 CNS", "condition not met"],
  ["Cn1c2c(Cl)c(Cl)ccc2c2ccn3c(=O)c4ccccc4nc3c21", "SNB-75 CNS", "condition not met"],
  ["Cn1c(=O)c2c(ncn2CC[N+](C)(C)C)n(C)c1=O", "SNB-75 CNS", "condition not met"],
  ["O=S(=O)(Nc1ccc(F)c(Cl)c1)c1ccc(-c2cnc(C3CC3)o2)cc1", "SNB-75 CNS", "condition met"],
  ["O=C(O)c1ccc(=O)[nH]n1", "SNB-75 CNS", "condition not met"],
  ["CCCCCCCCSC1=CC(=O)C(OC)=C(OC)C1=O", "SNB-75 CNS", "condition met"],
  ["CC/C=C\\C[C@H](O)C/C=C1/C(=O)C=C[C@@H]1C/C=C\\CCCC(N)=O", "SNB-75 CNS", "condition met"],
  ["O=C(O)c1ccccc1Nc1cccc(S(F)(F)(F)(F)F)c1", "SNB-75 CNS", "condition not met"],
  ["O=C(NCc1cccc(C(F)(F)F)c1)[C@H](CCC(=O)N1CCN(C2CCCCC2)CC1)N1C(=O)[C@@H](N2C(=O)OC[C@@H]2c2ccccc2)[C@H]1/C(Cl)=C/c1ccccc1", "SNB-75 CNS", "condition met"]
]}
